# assayed_system: human H-PGDS (Homo sapiens)
# experiment_summary: Hematopoietic prostaglandin D synthase (H-PGDS) inhibiting action, [14C]PGH2 to PGD2 conversion, TLC radioassay
# Type: biochemical
# experimental_setup: compound 0.1 μM; inhibition rate relative to solvent control group; [14C] prostaglandin H2 10 μM, 25° C.; read-out: H-PGDS inh. (% at 0.1 μM)
observation_type: inhibition at 0.1 µM (%)
Answers are plain numbers, in %.

The following compounds have reported results that may help.
{"columns": ["mol_smiles", "inhibition at 0.1 µM, %"],
 "data": [
  ["O=C(Nc1ccc(CCn2ccnn2)cc1)c1cnc(NC(=O)N2CCC(=Cc3ccccn3)CC2)s1", 53.9],
  ["CN(C)C(=O)N1CCC(NC(=O)N2CCC(=Cc3cc(F)ccc3F)CC2)CC1", 74.6]
]}

Hi there! I need inhibition at 0.1 µM for each item below, if you can.
1. O=C(NC1CCN(C(=O)C2CCCC2)CC1)N1CCC(=Cc2cc(F)ccc2F)CC1
2. O=C(O)c1ccc(NC(=O)c2cnc(NC(=O)N3CCC(=Cc4ccccn4)CC3)s2)cc1

Result block:
69
65.1

====

# assayed_system: human H-PGDS (Homo sapiens, UniProt O60760)
# Sequence (O60760 whole entry): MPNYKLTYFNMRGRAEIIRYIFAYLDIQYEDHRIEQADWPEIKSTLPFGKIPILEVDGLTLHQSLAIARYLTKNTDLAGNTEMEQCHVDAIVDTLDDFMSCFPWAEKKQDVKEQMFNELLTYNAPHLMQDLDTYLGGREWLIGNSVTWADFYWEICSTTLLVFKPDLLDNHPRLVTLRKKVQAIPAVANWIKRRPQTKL
# experiment_summary: Hematopoietic prostaglandin D synthase (H-PGDS) inhibiting action, [14C]PGH2 to PGD2 conversion, TLC radioassay
# Format: biochemical
# experimental_setup: compound 0.1 μM; inhibition rate relative to solvent control group; [14C] prostaglandin H2 10 μM, 25° C.; read-out: H-PGDS inh. (% at 0.1 μM)
Kindly state inhibition at 0.1 µM for each of the entries shown.
Answers are plain numbers, in %.

{"columns": ["compound", "display_unit", "readout_number"],
 "data": [
  ["CC(C)C(=O)Nc1ccc(NC(=O)N2CCC(=Cc3cc(F)ccc3F)CC2)cc1 [Example 77]", "%", 68.1],
  ["O=C(Nc1ccc(Nc2ccccc2)cc1)N1CCC(=Cc2cc(F)ccc2F)CC1 [Example 72]", "%", 68.7]
]}

Query block: Need inhibition at 0.1 µM, item O=C(Nc1nc2ccc(Br)cc2s1)N1CCC(=Cc2ccccn2)CC1 [Example 1]
Result block: 70.9

====

# assayed_system: human H-PGDS (Homo sapiens, UniProt O60760)
# experiment_summary: Hematopoietic prostaglandin D synthase (H-PGDS) inhibiting action, [14C]PGH2 to PGD2 conversion, TLC radioassay
# Format: biochemical
# experimental_setup: compound 0.1 μM; inhibition rate relative to solvent control group; [14C] prostaglandin H2 10 μM, 25° C.; read-out: H-PGDS inh. (% at 0.1 μM)
Kindly state inhibition at 0.1 µM for each of the entries shown.
Give bare numbers, in %.

The following molecules have reported results that may help.
{"columns": ["molecule", "inhibition at 0.1 µM / %"],
 "data": [
  ["O=C(NC1CCN(C(=O)C(F)F)CC1)N1CCC(=Cc2cc(F)ccc2F)CC1 [Example 43]", 68],
  ["O=C(NC1CCN(C(=O)c2cccc(F)n2)CC1)N1CCC(=Cc2cc(F)ccc2F)CC1 [Example 66]", 68.6],
  ["Nc1ccc2nc(NC(=O)N3CCC(=Cc4ccccn4)CC3)sc2c1 [Example 10]", 61.9],
  ["Cc1ccnc(C(=O)N2CCC(NC(=O)N3CCC(=Cc4cc(F)ccc4F)CC3)CC2)c1 [Example 63]", 64.7],
  ["O=C(Nc1ccc(NC(=O)N2CCC(=Cc3cc(F)ccc3F)CC2)cc1)c1cscn1 [Example 75]", 71.2]
]}

Hi there! I need inhibition at 0.1 µM for each item below, if you can.
1. O=C(Nc1nccs1)c1ccc(-c2ccc(NC(=O)N3CCC(=Cc4ccccn4)CC3)cn2)cc1 [Example 29]
2. O=C(Nc1ccc2nc(NC(=O)N3CCC(=Cc4ccccn4)CC3)sc2c1)N1CCOCC1 [Example 11]

Result block:
1. 78.8
2. 52.4

Hi there! I need inhibition at 0.1 µM for each item below, if you can.
1. COC(=O)c1ccc(N2CCC(NC(=O)N3CCC(=Cc4cc(F)ccc4F)CC3)CC2)cc1 [Example 41]
2. O=C(NC1CCN(c2ccc(CCn3ccnn3)cc2)CC1)N1CCC(=Cc2cc(F)ccc2F)CC1 [Example 34]

Result block:
1. 59
2. 77.8

Hi there! I need inhibition at 0.1 µM for each item below, if you can.
1. O=C(Nc1nc2ccc(-c3cccs3)cc2s1)N1CCC(=Cc2ccccn2)CC1 [Example 8]
2. O=C(Nc1ccon1)N1CCC(NC(=O)N2CCC(=Cc3cc(F)ccc3F)CC2)CC1 [Example 67]
3. Cc1nccn1Cc1cnc(NC(=O)N2CCC(=Cc3ccccn3)CC2)s1 [Example 83]
4. Cn1cccc1C(=O)N1CCC(NC(=O)N2CCC(=Cc3cc(F)ccc3F)CC2)CC1 [Example 55]
5. COc1ccc(CN2CCC(NC(=O)N3CCC(=Cc4cc(F)ccc4F)CC3)CC2)cc1Cl [Example 36]

Result block:
1: 80; 2: 51.7; 3: 41.6; 4: 70.9; 5: 58.3
